system: MS2 coat protein; experiment: apparent KD of MS2 coat protein; higher = weaker reporter binding; settings: Eterna round: R107; input ligand: tryptophan 2.4 mM
The reader will find reported apparent KD of MS2 coat protein values listed item by item below.

sequenceContent | measurementUnits | apparent KD of MS2 coat protein
GGAAACCAAAGCGAUACCAGCGUACAUGAAAAGAGCGAAAACAUGAGGAUCACCCAUGUACGCCCUUGGCAGCGCAAAACCAAGG | nM | 33.3
ACGACGCAUAGUGAUACCAGUACAACAUGAGGAUCACCCAUGUCACAUAUGUUGUAAUAGUGCCCUUGGCAGCACUAUGCGUCAG [SSTheo B #3] | nM | 125
AUGACUUACGGGCGCCAUUUGUAAUAGGAAGGAGCGGCGAGAUAGCCAGGUAGGUCGCCUAUACAUGAGGAUCACCCAUGUCACC [Vegeorbe] | nM | 112
GCCAUCGGCGGAAGCCGAUGGGAUACAGAAGGAGCGCGGAUUAACGCAGGUAGGUCGCUGGACAUGAGGAUCACCCAUGUAAUAG [SSAA #9] | nM | 18.5
GGACUAACCAGAAGGAGCGGCACGCAGAAACUGCAAAUUCCUCCACACGAGGAUCACCCGUGUCAGGUAGGUCGCUGGUUAGUCG | nM | 23.1
AGGUGGCGCGGAAGGAGCGAGUUUGCCUAUUACAUGAGGAUCACCCAUGUGGGUAAUGGGACUCAGGUAGGUCGCCGUUGUCGCU [Same State Arginine B GF 27] | nM | 61.5

* * *

test system: K4 kissing-loop RNA reporter; test: apparent KD of K4 kissing-loop reporter; higher = weaker reporter binding; conditions: Eterna round: R107; input ligand: none;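 note: bound reporter read as fluorescence of individual clusters on recovered sequencing chips by microscopy, with normalized cluster intensities fitted with a binding model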
The reader will find reported apparent KD of K4 kissing-loop reporter values listed item by item below.

sequenceContent | apparent KD of K4 kissing-loop reporter / µM
AAGCAGUCCCUUGUUGUCAUCGAAGAUGAACGAGGACCGGUACGGCCGCCACUCGGAGUGAUGUUCCGAAGGCUGCAAAAUAAAA [MatMod 20 - Jieux - Exclusion - Tryptophan A] | 0.116
AAGGUCACUACUACAGUGAUGUUGUAGGAGCAGGAUAUGCAGAAAUGCAGAAGGGCUCGCUCCAAGUGACCGAAUGAAACAUUCA [Omei KL FMN A SS A v2] | 0.607
UGGGAUGGGCGAGGAUAUGGUGAGGUGGCGGUUGUUAGUGAUGUUGGUGAUGCUAGUGAUGUUUGUCCAGAAGGCGCGGGAUUUU [BDazzled] | 0.171
AAGUGUUCUAGUGAUACCAGACAUUUCAAUUACAUUAAUAUAGCUAAGUGAUGUUUAGCAGUCCCUUGGCAGCACUAUUUCACUA [JR_SSTheophyB_Sub016] | 0.135
ACGUAGUUCUAGGAUACCAGCCAAGGAGCGCAGGACAAAAGUCCUGCCGCCAGUGAUGUUGGCCCUUGGCAGCCUAGAACUACGA [Omei KL Theo B Exc B v1] | 0.145
AAAGAUGCGUCGGCCGCCACUGUUGCCAGUGAUGUUGGCAUGUAGAUGCAGUGAUGUUGCGUUUUCAGGACCGGGACGUAAGAUG [5th] | 0.302
UUAUAACCCAGUGAUGUUGGGUAGCGGCCACGAGGACCGGUACGGCCGCCACUCGAGGUUUGACCAGUGAUGUUGGACUAUUUGG [Same state Tryptophan A GF 5] | 0.156
AAGCGUAAAAUGGCGGACAUACUGCUCCCACGAGGACCGGUACGGCCGCCACUCGAAUGCGGCAGUGAUGUUGCCGCCUUAGCGU [KL-XTryp-A19] | 0.0791
ACGUAUAUCAGAGGAUAUCGUAUUAAUAUUUUAUCUAUAUAUAUAUGCAGUGAUGUUGCUAUAAUUCGAGAAGGCUGAUUUACGA [JR_ExcFMNB_Sub011] | 0.084
GAAUUAUGUAGAAGGAGCGUUAGAAGGUAUAGGUGCGAGUGAUGUUUGGAUUUGUUAAUUUGACAGGUAGGUCGCUACAGAAGGA [KL-SSArg B18 #analogue] | 0.567
GUAUAUUAGGGAGACCUAAUAUAAAUAGAAGGAGCGUAGGAAACUACAGGUAGGUCGCUAAAUAUACAGUGAUGUUGUAUAAUGG [arg a same] | 0.172
GGGAGGAGUGGUGUUGAUUAGGGAGCGGAAGGAGCGCCGAAGAAGGCAGGUAGGUCGCCGGAAUAUAGUGAUGUUAUAUAGAGGG [ExArg.G] | 0.27
